Target: Voltage-gated potassium channel subunit beta-2 (Rattus norvegicus)
Assay: inhibitors of rat Kvbeta2 reductase activity – biochemical, NADPH fluorescence, primary screen (AID 622);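 note: slope of raw intensity against log time taken from 70 to 1610 s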
Conditions: recombinant KvBeta, 4-cyanobenzaldehyde reduction, at 10 µM, active compounds read high
Lab note: compare fluorescence slope against -0.5. Equal or greater, write MET. Smaller, write NOT MET.

[
  {
    "Compound": "CCC(C)c1ccc(NC(=O)c2cccnc2)cc1 (stereo unspecified)",
    "Answer Label": "MET"
  },
  {
    "Compound": "O=C(NC1CCCc2ccccc21)C1CCN(c2nnc(-n3cccc3)s2)CC1 (stereo unspecified)",
    "Answer Label": "NOT MET"
  },
  {
    "Compound": "CN(Cc1nc(-c2ccncc2)no1)S(=O)(=O)c1ccc(Cl)cc1",
    "Answer Label": "NOT MET"
  },
  {
    "Compound": "O=C(CSCc1cnn(-c2ccccc2)c1-n1cccc1)NCC1CCCO1 (stereo unspecified)",
    "Answer Label": "NOT MET"
  },
  {
    "Compound": "Cc1ccc(C)c(/C(O)=C2\\C(=O)C(=O)N(CCCN3CCOCC3)C2c2cccnc2)c1 (stereo unspecified)",
    "Answer Label": "MET"
  },
  {
    "Compound": "O=S1(=O)C=C(Sc2nc3ccccc3s2)c2ccccc21",
    "Answer Label": "MET"
  },
  {
    "Compound": "COc1ccc(N2CCN(CCCNC(=O)C3CCCN(S(=O)(=O)c4cnc[nH]4)C3)CC2)cc1 (stereo unspecified)",
    "Answer Label": "NOT MET"
  },
  {
    "Compound": "O=C(c1ccco1)N1CCN(C(=O)c2cc3c(s2)-c2ccccc2OC3)CC1",
    "Answer Label": "MET"
  },
  {
    "Compound": "CC(=O)Nc1ccc(S(=O)(=O)Nc2nc3c(s2)CCCC3)cc1",
    "Answer Label": "NOT MET"
  },
  {
    "Compound": "COC(=O)c1c(-c2cccs2)csc1NC(=O)CN1CCOCC1",
    "Answer Label": "NOT MET"
  }
]

* * *

Experiment: blockers of RIG-like receptor reporter activation – cell-based, Sendai virus stimulus, luciferase, 10K MLSCN set, TLR/RLR signaling modifier project, primary screen (AID 602276);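 note: firefly luciferase from ISG56 promoter only with Renilla not read in this screen; 0% = Sendai virus plus DMSO and 100% = medium plus DMSO without virus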
Conditions: HEK293 RL24 IRF3 luciferase reporter, at 10 µM, active compounds read high
Lab note: compare inhibition against 10%. Equal or greater, write 1.0. Smaller, write 0.0.

[
  {
    "Compound": "CSCCC(NC(=O)c1ccco1)C(=O)OC(C)C(=O)NC(=O)NC1CCCCC1 (stereo unspecified)",
    "Answer Label": 1.0
  },
  {
    "Compound": "O=C(c1ccc2nc(N3CCCCC3)sc2c1)N1CCN(c2ccccn2)CC1",
    "Answer Label": 0.0
  },
  {
    "Compound": "Cc1[nH]nc(N=CC2=C(O)CC(C)(C)CC2=O)c1-c1ccccc1",
    "Answer Label": 0.0
  },
  {
    "Compound": "CC(CCc1ccccc1)NCc1ccncc1 (stereo unspecified)",
    "Answer Label": 1.0
  },
  {
    "Compound": "Cc1occc1-c1nnc(SCC(=O)N2CCc3ccccc32)o1",
    "Answer Label": 0.0
  },
  {
    "Compound": "CC(=O)SCCC(=O)Nc1ccccc1",
    "Answer Label": 1.0
  }
]

* * *

Assay: reduction of polyQ htt aggregates in cells – imaging, exon1htt(103Q)mCFP cells, high-content imaging, primary screen (AID 483);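 note: compound exposure lasted 3 days before fixation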
Settings: exon1htt(103Q)mCFP cell line, aggregate imaging, at 2 µM; active compounds read high
Value Type: inhibition of aggregation (%)

[
  {
    "Molecule": "COc1ccccc1-n1c(=O)[nH]c2c(C(N)=O)nc(-c3cccnc3)nc21",
    "Value": -20.4
  },
  {
    "Molecule": "CC1CN(Cc2nc3c(c(=O)[nH]c(=O)n3C)n2CC(N)=O)CC(C)O1 (stereo unspecified)",
    "Value": -1.9
  },
  {
    "Molecule": "COCCCNC(=O)CSc1ccc(Cl)cc1",
    "Value": -3.3
  },
  {
    "Molecule": "Cc1cc(=O)n(-c2ccc3ccccc3n2)[nH]1",
    "Value": -7.3
  },
  {
    "Molecule": "CCOCCCNC(=O)C1CCC(CNS(=O)(=O)c2cccc3nsnc23)CC1 (stereo unspecified)",
    "Value": -28.4
  },
  {
    "Molecule": "Cc1cc2cc(CN(CC3CCCO3)C(=O)c3cnccn3)c(=O)[nH]c2cc1C (stereo unspecified)",
    "Value": -0.3
  }
]

* * *

Experiment: endothelial E-selectin expression blockers – imaging, HUVEC, immunofluorescence, MLSMR starter and 10KST1 sets, primary screen (AID 487);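 note: signal is fraction of cell area covered by stained E-selectin grains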
Conditions: HUVEC TNFalpha-induced E-selectin immunofluorescence imaging, at 2 µM; active compounds read high
Lab note: compare inhibition against -30%. Equal or greater, write 1. Smaller, write -1.

[
  {
    "Molecule": "c1cn2cc(CSC3CCCCC3)nc2s1",
    "Answer Label": -1
  },
  {
    "Molecule": "Cc1cc(C)nc(SC2=CS(=O)(=O)c3ccccc32)n1",
    "Answer Label": 1
  },
  {
    "Molecule": "Nc1nc(NCc2ccco2)nn1-c1ccccc1",
    "Answer Label": 1
  },
  {
    "Molecule": "COC(=O)Cc1cc(=O)[nH]c(Nc2nc3ccccc3o2)n1",
    "Answer Label": -1
  },
  {
    "Molecule": "OC(CN1CCN(c2ccccn2)CC1)Cn1c2ccccc2c2ccccc21 (stereo not drawn)",
    "Answer Label": 1
  },
  {
    "Molecule": "COc1ccccc1-n1c(=O)[nH]c2c(C(N)=O)nc(-c3cccnc3)nc21",
    "Answer Label": 1
  },
  {
    "Molecule": "Cc1cc(Nc2ccc(C(=O)O)cc2)n2nc(C)nc2n1",
    "Answer Label": 1
  },
  {
    "Molecule": "Cc1[nH]nc2c1C1(C(=O)N(Cc3ccc(Cl)cc3)c3ccccc31)C(C#N)=C(N)O2 (stereo not drawn)",
    "Answer Label": 1
  },
  {
    "Molecule": "O=C(NC12CC3CC(CC(C3)C1)C2)N1CCN(C(=O)C2CCCO2)CC1 (stereo not drawn)",
    "Answer Label": -1
  },
  {
    "Molecule": "O=C(CSc1nc2ccccc2s1)N1CCN(C(=O)c2ccco2)CC1",
    "Answer Label": -1
  },
  {
    "Molecule": "COc1ccc(-c2ccc(-c3noc(-c4cccs4)n3)c(OC)n2)cc1",
    "Answer Label": 1
  },
  {
    "Molecule": "COc1ccc(N2CCN(Cc3cc(=O)oc4cc(C)c(Cl)c(C)c34)CC2)cc1",
    "Answer Label": 1
  },
  {
    "Molecule": "CSC1=NCCN1C(=O)c1ccc(S(=O)(=O)N2CCCC2)cc1",
    "Answer Label": 1
  },
  {
    "Molecule": "COC(=O)Nc1ccccc1C(=O)N1CCCCC1",
    "Answer Label": 1
  },
  {
    "Molecule": "Cc1ccc2nc(-c3ccc4c(c3)OCCO4)cc(C(=O)O)c2c1",
    "Answer Label": 1
  },
  {
    "Molecule": "CCn1cc(S(=O)(=O)CC(=O)Nc2ccc(OC)cc2)c2ccccc21",
    "Answer Label": 1
  },
  {
    "Molecule": "C=CCN(C(=O)CNS(=O)(=O)c1ccccc1)C(C(=O)NCCOC)c1ccncc1 (stereo not drawn)",
    "Answer Label": 1
  },
  {
    "Molecule": "N#Cc1c2n(c(=O)[nH]c1=O)CCCCC2",
    "Answer Label": 1
  },
  {
    "Molecule": "O=C(O)C1CCCN1C(=O)c1cccs1 (stereo not drawn)",
    "Answer Label": -1
  },
  {
    "Molecule": "O=C(CCn1c(=O)oc2ccccc21)NCc1ccco1",
    "Answer Label": -1
  },
  {
    "Molecule": "CC(C)OC(=O)CSc1nnc(-c2ccc(O)cc2)n1Cc1ccccc1",
    "Answer Label": -1
  },
  {
    "Molecule": "CCOC(=O)C1CCN(S(=O)(=O)c2cccc(-c3csc(C)n3)c2)CC1",
    "Answer Label": 1
  }
]
